Where do the numbers come from? From patent US12208110B2.

- test_protocol: MT4 cytotoxicity analysis (CellTiter-Glo)
- Format: cell-based
- details: human; MT-4 cells, five days, CellTiter-Glo; read-out: MT4 CC50
property: CC50 at 5 days (µM)
Answers are plain numbers, in µM.

Examples with their reported CC50 at 5 days follow.
> print(dat)
                                 cpd.smiles        property  unit.of.measurement  value
1  CCCCCCCCCCCCCCCCO[C@H](COCc1ccccc1)COP(=O)(O)OC[C@H]1O[C@@](C#N)(c2ccc3c(N)ncnn23)[C@H](O)[C@@H]1O  CC50 at 5 days                   µM     23
2  CCCCCCCCCCCCCCCCCCO[C@H](COCc1ccccc1)COP(=O)(O)OC[C@H]1O[C@@](C#N)(c2ccc3c(N)ncnn23)[C@H](O)[C@@H]1O  CC50 at 5 days                   µM    9.6

Okay, here is my list. What is CC50 at 5 days for each of these?
1. CCCCCCCCCCCCCCCCCCOCCOP(=O)(O)OC[C@H]1O[C@@](C#N)(c2ccc3c(N)ncnn23)[C@H](O)[C@@H]1O
2. CCCCCCCCCCCCCCCCCCOC[C@H](COc1ccccc1)OP(=O)(O)OC[C@H]1O[C@@](C#N)(c2ccc3c(N)ncnn23)[C@H](O)[C@@H]1O

2.3
0.67

# batch size: 2; output CC50 at 5 days per entry
1. CCCCCCCCCCCCCCO[C@H](COCc1ccccc1)COP(=O)(O)OC[C@H]1O[C@@](C#N)(c2ccc3c(N)ncnn23)[C@H](O)[C@@H]1O
2. CCCCCCCCCCCCCCCCCCOC[C@H](CO[P@](O)(=S)OC[C@H]1O[C@@](C#N)(c2ccc3c(N)ncnn23)[C@H](O)[C@@H]1O)OCc1cc(F)cc(C#N)c1

1. 35
2. 0.67

* * *

- Design: species or system Sprague-Dawley (SD) rats
- details: male, Sprague-Dawley, rat, in vivo, po, 10 mg/kg
property: Total Lung Phosphate Level (monophosphate + diphosphate + triphosphate, nmol/g)
One number for each entry, in nmol/g.

Working through the 5 molecules below one at a time, give Total Lung Phosphate Level (monophosphate + diphosphate + triphosphate, nmol/g) for each.
1. CCCCCCCCCCCCCCCCCCOC[C@H](COP(=O)(O)OC[C@H]1O[C@@](C#N)(c2ccc3c(N)ncnn23)[C@H](O)[C@@H]1O)OCc1cc(OC)c(C#N)c(OC)c1 [Example 55]
2. CCCCCCCCCCCCCCCCCCC[C@H](COP(=O)(O)OC[C@H]1O[C@@](C#N)(c2ccc3c(N)ncnn23)[C@H](O)[C@@H]1O)OCc1cc(F)cc(C#N)c1 [Example 35]
3. CCCCCCCCCCCCCCCCCCOC[C@H](COP(=O)(O)OC[C@H]1O[C@@](C#N)(c2ccc3c(N)ncnn23)[C@H](O)[C@@H]1O)Oc1cc(OC)c(C#N)c(OC)c1 [Example 34]
4. CCCCCCCCCCCCCCCCCCOC[C@H](COP(=O)(O)OC[C@H]1O[C@@](C#N)(c2ccc3c(N)ncnn23)[C@H](O)[C@@H]1O)OCc1ccccc1 [Reference Compound, reference compound]
5. CCCCCCCCCCCCCCCCCCOC[C@H](COP(=O)(O)OC[C@H]1O[C@@](C#N)(c2ccc3c(N)ncnn23)[C@H](O)[C@@H]1O)N(C)Cc1ccc(F)c(Cl)c1 [Example 3]

1. 2.1
2. 2.7
3. 2.4
4. 0.5
5. 0.6
